target: T1, recombinant human PD-L1 His protein (human, UniProt Q9NZQ7 19-239); test: SPR Biacore T200, PD-L1 His on chip, sdAb analyte
T1 construct: not shown: His tag
T1 sequence (Q9NZQ7 19-239 limits assumed): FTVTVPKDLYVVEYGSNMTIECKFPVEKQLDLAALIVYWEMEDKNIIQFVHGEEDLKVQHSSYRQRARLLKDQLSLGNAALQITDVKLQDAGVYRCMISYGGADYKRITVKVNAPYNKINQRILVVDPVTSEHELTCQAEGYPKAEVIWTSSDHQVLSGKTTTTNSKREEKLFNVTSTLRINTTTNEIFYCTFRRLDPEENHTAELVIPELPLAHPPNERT
Could you label it 1.0 if measured koff is 0.0002 s⁻¹ or higher, and 0.0 otherwise?

In plain terms: is recorded koff at least 0.0002 s⁻¹ for AS06778 sdAb (VHH, His6-tagged llama sdAb) VHH: QVQLVESGGGLVQAGGSLKLSCAASGRTFITYAMGWFRQAPGKERELVAAISWSGSSTYSADSVKGRFTISRDNAKNTVYLQMNSLKPEDTAVYYCAAEVSARTGEHLPKLMGDYWGQGTQVTVSS ?
0.0

In plain terms: is recorded koff at least 0.0002 s⁻¹ for AS12003 sdAb (VHH, His6-tagged llama sdAb) VHH: EVQLVESGGGLVQAGDSLRLSCAASGRTFLSYAVGWFRQAPGTEREFVAGIRWSGGSTDYADSVKGRFTISRDNAKNTVYLQMNSLKPEDTAVYYCAAHRTIATVPNKYEYDTWGQGTQVTVSS ?
1.0

In plain terms: is recorded koff at least 0.0002 s⁻¹ for AS06730 sdAb (VHH, His6-tagged llama sdAb) VHH: QVQLVESGGGLVQAGGSLRLSCAASGRTFITYAIGWFRQAPGKEREFVSAINWSGSMTSYADSVKGRFTISRDNAKNTVYLQMNGLKPEDTAVYYCAAHRGAIAPIAQSVYTNWGQGTQVTVSS ?
0.0

In plain terms: is recorded koff at least 0.0002 s⁻¹ for AS06703 sdAb (VHH, His6-tagged llama sdAb) VHH: EVQLVESGGGLVRAGGSLRLSCAASGRTFITYAIGWFRQAPGKEREFVTAINWSGSMTSYADSVKGRFTISRDNNKNTVYLQMNSLKPEDTALYYCAAHLGAIAPMSQSVYDYWGQGTQVTVSS ?
0.0

In plain terms: is recorded koff at least 0.0002 s⁻¹ for AS06628 sdAb (VHH, His6-tagged llama sdAb) VHH: QVQLVESGGGLVQAGGSLRLSCAASGRTFITYAIGWFRQAPGKEREFVTAINWSGSMTSYADSVKGRFTISRDNNKNMVYLQMNSLKPEDTAVYYCAAHRGAIAPMTQSVYDYWGQGTQVTVSS ?
1.0

In plain terms: is recorded koff at least 0.0002 s⁻¹ for AS06617 sdAb (VHH, His6-tagged llama sdAb) VHH: DVQLVESGGGLVQAGDSLRLSCAASGRTFISYAVGWFRQAPGSEREFVAGIRWNGIHTDYADSVKGRFTISRDNAKNTVTLEMTSLKPEDTAVYYCAAHRTIATIPEKYEYEYWGQGTQVTVSS ?
1.0
